assay explanation: in vivo
condition notes: rat, po, 10 mg/kg
assay metric: bioavailability (%)
State the answer as a number, implicitly in %.

Worked cases, bioavailability given:
chem smiles	experimental result
CC1(C)c2cc(C3CCN(CC4(O)CCOCC4)CC3)ccc2C(=O)c2c1[nH]c1cc(C#N)ccc21	42.4
CC1(C)c2cc(C3CCN(CC4CCOCC4)CC3)ccc2C(=O)c2c1[nH]c1cc(C#N)ccc21	67.1

// query Which bioavailability value belongs to CCc1cc2c(cc1-c1cnn(CC(=O)N(C)C)c1)C(C)(C)c1[nH]c3cc(C#N)ccc3c1C2=O ?
// result 7.1

* * *

assay explanation: in vivo
condition notes: rat, iv, 5 mg/kg
The following compounds are shown together with reported clearance values.
State the answer as a number, implicitly in mL/min/kg.

chem smiles	clearance / mL/min/kg
CC1(C)c2cc(C3CCN(CC4CCOCC4)CC3)ccc2C(=O)c2c1[nH]c1cc(C#N)ccc21	14.2

Pending compound:
// query Which clearance value belongs to CC1(C)c2cc(C3CCN(CC4(O)CCOCC4)CC3)ccc2C(=O)c2c1[nH]c1cc(C#N)ccc21 ?
// result 38
